test system: HIV-1 RT mutant K101P/V179I; assay: single round infection assay, K101P/V179I; assay type: cell-based; settings: K101P/V179I vs WT
READOUT TYPE: fold-change of IC50 of the mutant relative to WT

>  <SMILES STRUCTURE>
Cc1cc(/C=C/C#N)cc(C)c1-n1cnc2cnc(Nc3ccc(C#N)cc3)nc21

>  <TEST VALUE>
29

$$$$
>  <SMILES STRUCTURE>
Cc1cc(/C=C/C#N)cc(C)c1Nc1ncc([N+](=O)[O-])c(Nc2ccc(C#N)cc2)n1

>  <TEST VALUE>
19

$$$$
>  <SMILES STRUCTURE>
Cc1cc(/C=C/C#N)cc(C)c1Nc1nc(Nc2ccc(C#N)cc2)nc2[nH]cnc12

>  <TEST VALUE>
4

$$$$
>  <SMILES STRUCTURE>
Cc1cc(/C=C/C#N)cc(C)c1Nc1ccnc(Nc2ccc(C#N)cc2)n1

>  <TEST VALUE>
390

$$$$
>  <SMILES STRUCTURE>
Cc1cc(/C=C/C#N)cc(C)c1Nc1nc(Nc2ccc(C#N)cc2)ncc1[N+](=O)[O-]

>  <TEST VALUE>
25

$$$$
>  <SMILES STRUCTURE>
Cc1cc(/C=C/C#N)cc(C)c1Nc1nc(Nc2ccc(C#N)cc2)ncc1N

>  <TEST VALUE>
104

$$$$
